- MEASUREMENT_NOTES: Stability in Simulated Gastric Fluid (SGF)
- Assay type: in vitro ADME
- Design: key: % parent compound remaining relative to 0-minute sample
- CONDITION_PARAMETERS: % remaining at 1 h in simulated gastric fluid; the 15th table
# Lookup of reported SGF keyed by entry
ENDPOINT_LABEL: SGF

- CC(C)OCCn1c(SCOC(=O)NCc2ccccc2)nc(=O)c2c1ccn2C(=O)NCc1ccccc1 [Example 193]: 98% remaining
- COC(=O)OCSc1nc(=O)c2[nH]ccc2n1CCOC(C)C [Example 200]: 100% remaining
- CC(C)NC(=O)OCSc1nc(=O)c2c(ccn2C(=O)NC(C)C)n1CCOC(C)C [Example 195]: 100% remaining
- CC(C)CNC(=O)OCSc1nc(=O)c2c(ccn2C(=O)NCC(C)C)n1CCOC(C)C [Example 187]: 97% @ 1 h
- CC(C)OCCn1c(SCOC(=O)NCc2ccccc2)nc(=O)c2[nH]ccc21 [Example 192]: 100% remaining
- CCCNC(=O)OCSc1nc(=O)c2c(ccn2C(=O)NCCC)n1CCOC(C)C [Example 184]: 99% @ 1 h
- CC(C)CNC(=O)OCSc1nc(=O)c2[nH]ccc2n1CCOC(C)C [Example 186]: 86% @ 1 h
- CCCNC(=O)OCSc1nc(=O)c2[nH]ccc2n1CCOC(C)C [Example 182]: 81% @ 1 h
- CC(C)OCCn1c(SCOC(=O)OC(C)C)nc(=O)c2[nH]ccc21 [Example 203]: 99% remaining

====

- MEASUREMENT_NOTES: Stability in Simulated Gastric Fluid (SGF)
- Format: in vitro ADME
- CONDITION_PARAMETERS: % remaining at 1 h in simulated gastric fluid
Criterion: SGF strictly under 90 % remaining. Met: true. Not met: false.

* CC(C)OCCn1c(=S)[nH]c(=O)c2c1ccn2COC(=O)CCCCNC(=O)[C@@H]1CCC(=O)N1C(=O)OCc1ccccc1.O=C(O)C(F)(F)F | false
* CC(C)OCCn1c(=S)[nH]c(=O)c2c1ccn2COC(=O)CCNC(=O)[C@@H](N)CCc1ccccc1.O=C(O)C(F)(F)F | false
* CNCC(=O)NCCC(=O)OCn1ccc2c1c(=O)[nH]c(=S)n2CCOC(C)C.O=C(O)C(F)(F)F | true
* CC(C)OCCn1c(=S)[nH]c(=O)c2c1ccn2COC(=O)CCCCNC(=O)[C@@H](N)Cc1ccc(O)cc1.O=C(O)C(F)(F)F | false
* CC(C)OCCn1c(=S)[nH]c(=O)c2c1ccn2COC(=O)CCCCNC(=O)[C@H](Cc1c[nH]c2ccccc12)NC(=O)OC(C)(C)C.O=C(O)C(F)(F)F | false
* CC(C)OCCn1c(=S)[nH]c(=O)c2c1ccn2COC(=O)CCCCNC(=O)[C@H](Cc1ccccc1)NC(=O)OCC1c2ccccc2-c2ccccc21.O=C(O)C(F)(F)F | true
* CC(C)OCCn1c(=S)[nH]c(=O)c2c1ccn2COC(=O)CCNC(=O)[C@H](CCc1ccccc1)NC(=O)OC(C)(C)C.O=C(O)C(F)(F)F | true

====

# Lookup of reported human Plasma stability keyed by entry
- MEASUREMENT_NOTES: Plasma Stability
- Format: in vitro ADME, human
- CONDITION_PARAMETERS: % remaining at 1 h; human plasma, 1 μM, 37° C.
ENDPOINT_LABEL: human Plasma stability (%)

* COCCOCCOC(=O)OCn1c(=O)c2c(ccn2COC(=O)OCCOCCOC)n(CCOC(C)C)c1=S | 2
* CC(C)OCCn1c(=S)[nH]c(=O)c2c1ccn2COC(=O)CCN | 45
* COC(=O)[C@H](CCCCNC(=O)[C@@H](NC(=O)OC(C)(C)C)C(C)C)NC(=O)OCn1ccc2c1c(=O)[nH]c(=S)n2CCOC(C)C | 85
* CC(C)OCCn1c(SCOCC[Si](C)(C)C)nc(=O)c2c1ccn2COCC[Si](C)(C)C | 99
* CC(C)OCCn1c(=S)[nH]c(=O)c2c1ccn2S(=O)(=O)c1ccccc1 | 96
* CC(C)OCCn1c(=S)n(COC(=O)c2ccccc2)c(=O)c2c1ccn2COC(=O)c1ccccc1 | 20
* CC(C)OCCn1c(=S)[nH]c(=O)c2c1ccn2COC(=O)CCNC(=O)OC(C)(C)C | 59
* COC(=O)[C@H](CCCCNC(=O)OC(C)(C)C)NC(=O)n1ccc2c1c(=O)[nH]c(=S)n2CCOC(C)C | 92
* CC(C)OCCn1c(=S)[nH]c(=O)c2c1ccn2COC(=O)c1ccccc1 | 1
* CC(C)OCCn1c(=S)[nH]c(=O)c2c1ccn2COC(=O)[C@H]1CCCN1C(=O)OC(C)(C)C | 99
* COCCOCCN(C)C(=O)OCSc1nc(=O)c2c(ccn2COC(=O)N(C)CCOCCOC)n1CCOC(C)C | 100
* CC(C)OCCn1c(=S)n2c(=O)c3c1ccn3COC(=O)CCCCCCC(=O)OC2 | 1
* COC(=O)[C@H](CCCCNC(=O)OC(C)(C)C)NC(=O)OCn1ccc2c1c(=O)[nH]c(=S)n2CCOC(C)C | 97
* CC(C)OCCn1c(=S)[nH]c(=O)c2c1ccn2C(C)OC(=O)N(C)CC(=O)OC(C)(C)C (stereo not shown) | 99
